- experimental.system: human full-length MKNK1 (Homo sapiens, UniProt Q9BUB5, T385D)
- Construct: GST (N); purchased Carna Biosciences 02-145; host or cells: insect cells (baculovirus expression system)
- Sequence (Q9BUB5 1-424 isoform Q9BUB5-2 T344D): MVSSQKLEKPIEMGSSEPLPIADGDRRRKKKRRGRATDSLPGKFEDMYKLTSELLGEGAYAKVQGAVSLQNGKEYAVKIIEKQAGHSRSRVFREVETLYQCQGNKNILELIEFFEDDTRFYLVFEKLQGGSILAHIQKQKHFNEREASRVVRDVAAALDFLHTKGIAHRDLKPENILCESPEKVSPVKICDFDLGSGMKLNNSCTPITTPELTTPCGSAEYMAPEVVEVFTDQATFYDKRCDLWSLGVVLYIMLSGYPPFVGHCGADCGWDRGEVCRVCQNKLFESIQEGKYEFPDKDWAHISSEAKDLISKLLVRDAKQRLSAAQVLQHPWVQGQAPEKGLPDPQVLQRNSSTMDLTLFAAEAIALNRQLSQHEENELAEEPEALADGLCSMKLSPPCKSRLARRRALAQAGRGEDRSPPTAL
- experiment: MKNK1 kinase high ATP assay (TR-FRET)
- Format: biochemical
- conditions.used: 2 mM ATP, after preincubation with MKNK1; read-out: MKNK1 IC50 (MKNK1 high ATP)
observed.property: IC50

Example entries begin here.
CN(Cc1ccncc1)C(=O)C1CCc2c(sc3ncnc(Nc4ccc5[nH]ncc5c4)c23)C1 (stereo not drawn)
3 nM
COc1cc2[nH]ncc2cc1Nc1ncnc2sc3c(c12)CCC(C(=O)N1CCCC1)C3 (racemic)
3.2 nM

Query compound follows.
Q: Which IC50 value belongs to CC(C)(NC(=O)C1CCc2c(sc3ncnc(Nc4ccc5[nH]ncc5c4)c23)C1)c1ccc(F)cc1 (racemic) ?
A: 3.2 nM

---

- experimental.system: human full-length MKNK1 (Homo sapiens, UniProt Q9BUB5, T385D)
- Construct: GST (N); purchased Carna Biosciences 02-145; host or cells: insect cells (baculovirus expression system)
- experiment: MKNK1 kinase high ATP assay (TR-FRET)
- Format: biochemical
- conditions.used: 2 mM ATP, after preincubation with MKNK1; read-out: MKNK1 IC50 (MKNK1 high ATP)
Recorded pIC50 values for a group of compounds are listed next.
Kindly note that pIC50 refers to -log10 of the concentration in mol/L and answer with the value alone.

Example entries begin here.
CCOc1cc2[nH]ncc2cc1Nc1ncnc2sc3c(c12)CCC(C(=O)N(CC)CCO)C3 (racemic) [Example 231]
9.52
COCCN(C)C(=O)C1CCc2c(sc3ncnc(Nc4ccc5[nH]ncc5c4)c23)C1 (racemic) [Example 130]
8.02
CN(C)C(=O)C1CCc2c(sc3ncnc(Nc4ccc5[nH]ncc5c4)c23)C1 (stereo not drawn) [Example 10]
7.92
Cn1nccc1NC(=O)C1CCc2c(sc3ncnc(Nc4ccc5[nH]ncc5c4)c23)C1 (racemic) [Example 117]
7.95
O=C(NCc1cccs1)C1CCc2c(sc3ncnc(Nc4ccc5[nH]ncc5c4)c23)C1 (racemic) [Example 90]
7.79

Q: Which pIC50 value belongs to O=C(NC1CC1)C1CCc2c(sc3ncnc(Nc4ccc5[nH]ncc5c4)c23)C1 (stereo not drawn) [Example 44] ?
A: 8.05

Q: Which pIC50 value belongs to CC(C)Oc1cc2[nH]ncc2cc1Nc1ncnc2sc3c(c12)CCC(C(=O)N(C)C)C3 (racemic) [Example 70] ?
A: 9.40

Q: Which pIC50 value belongs to O=C(NC1CCOCC1)C1CCc2c(sc3ncnc(Nc4ccc5[nH]ncc5c4)c23)C1 (racemic) [Example 123] ?
A: 7.95

Q: Which pIC50 value belongs to NC(=O)C1CCc2c(sc3ncnc(Nc4ccc5[nH]ncc5c4)c23)C1 (stereo not drawn) [Example 3] ?
A: 8.10

Q: Which pIC50 value belongs to CCOc1cc2[nH]ncc2cc1Nc1ncnc2sc3c(c12)CCC(C(=O)N1CCCC(C#N)C1)C3 (racemic) [Example 241] ?
A: 9.40

Q: Which pIC50 value belongs to CC(C)Oc1cc2[nH]ncc2cc1Nc1ncnc2sc3c(c12)CCC(C(=O)N(C)CC(F)F)C3 (racemic) [Example 216] ?
A: 9.30

Q: Which pIC50 value belongs to CC(C)OC(=O)C1CCc2c(sc3ncnc(Nc4ccc5[nH]ncc5c4)c23)C1 (racemic) [Example 74] ?
A: 7.56

Q: Which pIC50 value belongs to COc1ccc(CNC(=O)C2CCc3c(sc4ncnc(Nc5ccc6[nH]ncc6c5)c34)C2)cc1 (stereo not drawn) [Example 30] ?
A: 8.40

Q: Which pIC50 value belongs to COc1cc2[nH]ncc2cc1Nc1ncnc2sc3c(c12)CCC(C(=O)N(CCO)CCO)C3 (racemic) [Example 234] ?
A: 9.40

Q: Which pIC50 value belongs to CCOc1cc2[nH]ncc2cc1Nc1ncnc2sc3c(c12)CCC(C(=O)N(CCOC)CCOC)C3 (racemic) [Example 252] ?
A: 8.66

Q: Which pIC50 value belongs to COc1cc2[nH]ncc2cc1Nc1ncnc2sc3c(c12)CCC(C(=O)N1CC2(CCO2)C1)C3 (racemic) [Example 260] ?
A: 9.15

Q: Which pIC50 value belongs to CN1CCN(C(=O)C2CCc3c(sc4ncnc(Nc5ccc6[nH]ncc6c5)c34)C2)CC1CCO (racemic) [Example 197] ?
A: 8.10
